- tgt: Hsp90 (Homo sapiens)
- Construct: purchased Assay Designs (Ann Arbor, MI, USA); host or cells: E. coli
- method-description: SPR binding assay on immobilized Hsp90
- test-context: immobilized Hsp90, 25°C, single-site bimolecular model
# maps each entry to its koff
recorded-endpoint: koff

>>> observed_result("OCCc1cn([C@H]2CCN3C[C@H](O)[C@@H](O)[C@@H]3C2)nn1 [Compound 5]")
"2.55±0.35 10^-3 1/s"
>>> observed_result("N=C(N)NCCC[C@H](N)C(=O)N[C@H]1CCN2C[C@H](O)[C@@H](O)[C@@H]2C1 [Compound 3]")
"2.18±0.23 10^-3 1/s"
>>> observed_result("N[C@H]1CCN2C[C@H](O)[C@@H](O)[C@@H]2C1 [Compound 7]")
"25.6±2.1 10^-3 1/s"
>>> observed_result("O[C@@H]1[C@@H](O)CN2CCCC[C@@H]12 [Compound 1, (+)-lentiginosine]")
"1.86±0.31 10^-3 1/s"
>>> observed_result("N[C@@H](Cc1c[nH]c2ccccc12)C(=O)NCc1cn([C@H]2CCN3C[C@H](O)[C@@H](O)[C@@H]3C2)nn1 [Compound 6]")
"4.12±0.81 10^-3 1/s"
>>> observed_result("CCCCCCc1cn([C@H]2CCN3C[C@H](O)[C@@H](O)[C@@H]3C2)nn1 [Compound 4]")
"2.05±0.42 10^-3 1/s"
